Tested on: Mus musculus
Assay: In vivo hypoglycemic activity after administration (40 mg/kg) in mice on day 7 was determined
Format: functional
MEASURE: Blood glucose

Recorded Blood glucose, per entry:
# MOLECULE, MEASURE, RESULT
rows = [
    ("O=C(Oc1cc(O)c2c(=O)cc(-c3ccccc3)oc2c1)c1ccc(F)cc1", "Blood glucose", "362.5 mg/dL"),
    ("Cc1ccc(C(=O)Oc2cc(O)c3c(=O)cc(-c4ccccc4)oc3c2)cc1", "Blood glucose", "261.8 mg/dL"),
    ("CC(=O)Oc1ccccc1C(=O)Oc1cc(O)c2c(=O)cc(-c3ccccc3)oc2c1", "Blood glucose", "500.9 mg/dL"),
    ("COc1cc(OC)c2c(=O)cc(-c3ccccc3)oc2c1 [CHRYSIN DIMETHYL ETHER]", "Blood glucose", "399.5 mg/dL"),
]

Okay, now this molecule:
Check the records and state Blood glucose for COc1ccc(/C=C/C(=O)Oc2cc(O)c3c(=O)cc(-c4ccccc4)oc3c2)cc1
333.3 mg/dL

# credit: ChEMBL document CHEMBL1132521
